Experiment: Singlet oxygen quantum yield, chemical method with DPBF quencher
Assay type: physicochemical
Details: DMF, 414 nm
Listed next: entries and their corresponding Singlet oxygen quantum yield ΦΔ.
API doc: respond with a numeric literal and nothing else, no unit.

Completed entries (count: 3):
smiles.representation: C#CCOCc1cc(C)cc(COCC#C)c1Oc1nc2c(nc1Oc1c(COCC#C)cc(C)cc1COCC#C)C1=Nc3c4nc(Oc5c(COCC#C)cc(C)cc5COCC#C)c(Oc5c(COCC#C)cc(C)cc5COCC#C)nc4c4[n]3[Zn][n]3c(c5nc(Oc6c(COCC#C)cc(C)cc6COCC#C)c(Oc6c(COCC#C)cc(C)cc6COCC#C)nc5c3=NC3=NC(=N4)c4nc(Oc5c(COCC#C)cc(C)cc5COCC#C)c(Oc5c(COCC#C)cc(C)cc5COCC#C)nc43)=NC2=N1
reported.metric: Singlet oxygen quantum yield ΦΔ
observed.value: 0.63
//
smiles.representation: C#CCOCc1cc(C)cc(COCC#C)c1Oc1cc2c(cc1Oc1c(COCC#C)cc(C)cc1COCC#C)C1=Nc3c4cc(Oc5c(COCC#C)cc(C)cc5COCC#C)c(Oc5c(COCC#C)cc(C)cc5COCC#C)cc4c4[n]3[Zn][n]3c(c5cc(Oc6c(COCC#C)cc(C)cc6COCC#C)c(Oc6c(COCC#C)cc(C)cc6COCC#C)cc5c3=NC3=NC(=N4)c4cc(Oc5c(COCC#C)cc(C)cc5COCC#C)c(Oc5c(COCC#C)cc(C)cc5COCC#C)cc43)=NC2=N1
reported.metric: Singlet oxygen quantum yield ΦΔ
observed.value: 0.60
//
smiles.representation: C#CCOCc1cc(C)cc(COCC#C)c1Oc1cc2c(cc1Cl)C1=Nc3c4cc(Oc5c(COCC#C)cc(C)cc5COCC#C)c(Cl)cc4c4[n]3[Zn][n]3c(c5cc(Cl)c(Oc6c(COCC#C)cc(C)cc6COCC#C)cc5c3=NC3=NC(=N4)c4cc(Oc5c(COCC#C)cc(C)cc5COCC#C)c(Cl)cc43)=NC2=N1
reported.metric: Singlet oxygen quantum yield ΦΔ
observed.value: 0.60

Task item: Fill in the blank: the reported Singlet oxygen quantum yield ΦΔ of C#CCOCc1cc(C)cc(COCC#C)c1Oc1ccc2c(c1)C1=NC2=Nc2c3cc(Oc4c(COCC#C)cc(C)cc4COCC#C)ccc3c3[n]2[Zn][n]2c(c4ccc(Oc5c(COCC#C)cc(C)cc5COCC#C)cc4c2=NC2=NC(=N3)c3cc(Oc4c(COCC#C)cc(C)cc4COCC#C)ccc32)=N1 is ____.
Reply: 0.57

====

Assay: Fluorescence lifetime by time correlated single photon counting (TCSPC)
Assay type: physicochemical
Conditions: DMF
Procedure: Fluorescence lifetime (τF) refers to the average time that a molecule stays in its excited state before returning to its ground state by photon emission. The fluorescence lifetime values of the AzaPc1/Pc2-Pc5 compounds were determined by using time correlated single photon counting (TCSPC). All time-resolved fluorescence studies were carried out for the exemplary compounds in solution in DMF, and the fluorescence decays of the macrocycles were concluded in mono exponential curves.
reported.metric: Fluorescence lifetime τF (ns)

Here is how some molecules turned out for Fluorescence lifetime τF.
molecule: C#CCOCc1cc(C)cc(COCC#C)c1Oc1nc2c(nc1Oc1c(COCC#C)cc(C)cc1COCC#C)C1=Nc3c4nc(Oc5c(COCC#C)cc(C)cc5COCC#C)c(Oc5c(COCC#C)cc(C)cc5COCC#C)nc4c4[n]3[Zn][n]3c(c5nc(Oc6c(COCC#C)cc(C)cc6COCC#C)c(Oc6c(COCC#C)cc(C)cc6COCC#C)nc5c3=NC3=NC(=N4)c4nc(Oc5c(COCC#C)cc(C)cc5COCC#C)c(Oc5c(COCC#C)cc(C)cc5COCC#C)nc43)=NC2=N1
Fluorescence lifetime τF, ns: 2.46
//
molecule: C#CCOCc1cc(C)cc(COCC#C)c1Oc1cc2c(cc1Oc1c(COCC#C)cc(C)cc1COCC#C)C1=Nc3c4cc(Oc5c(COCC#C)cc(C)cc5COCC#C)c(Oc5c(COCC#C)cc(C)cc5COCC#C)cc4c4[n]3[Zn][n]3c(c5cc(Oc6c(COCC#C)cc(C)cc6COCC#C)c(Oc6c(COCC#C)cc(C)cc6COCC#C)cc5c3=NC3=NC(=N4)c4cc(Oc5c(COCC#C)cc(C)cc5COCC#C)c(Oc5c(COCC#C)cc(C)cc5COCC#C)cc43)=NC2=N1
Fluorescence lifetime τF, ns: 3.30
//
molecule: C#CCOCc1cc(C)cc(COCC#C)c1Oc1cc2c(cc1Cl)C1=Nc3c4cc(Oc5c(COCC#C)cc(C)cc5COCC#C)c(Cl)cc4c4[n]3[Zn][n]3c(c5cc(Cl)c(Oc6c(COCC#C)cc(C)cc6COCC#C)cc5c3=NC3=NC(=N4)c4cc(Oc5c(COCC#C)cc(C)cc5COCC#C)c(Cl)cc43)=NC2=N1
Fluorescence lifetime τF, ns: 2.84

(I) C#CCOCc1cc(C)cc(COCC#C)c1Oc1ccc2c(c1)C1=NC2=Nc2c3cc(Oc4c(COCC#C)cc(C)cc4COCC#C)ccc3c3[n]2[Zn][n]2c(c4ccc(Oc5c(COCC#C)cc(C)cc5COCC#C)cc4c2=NC2=NC(=N3)c3cc(Oc4c(COCC#C)cc(C)cc4COCC#C)ccc32)=N1
(II) [Zn+2].c1ccc2c(c1)-c1nc-2nc2[n-]c(nc3nc([n-]c4nc(n1)-c1ccccc1-4)-c1ccccc1-3)c1ccccc21 [Std-ZnPc, zinc(II) phthalocyanine, reference compound]
Task item: Field: lower Fluorescence lifetime τF | Options: I / II State your choice using its label.
Reply: II
